Tested on: HEK293T (UBE3A T485A transfected, BAR Wnt reporter)
Assay: Renilla luciferase signal (cell health) relative to plate median (fold (linear ratio)); higher = higher Renilla signal
Conditions: concentration: 10 uM; 24 h
In all, about 1,100 compounds were measured (“Renilla luciferase signal (cell health) relative to plate median”: median about 0.97, highest 2% from about 1.6 on). This excerpt belongs to a sample that is enriched for the highest values.
// reported Renilla luciferase signal per item

compound	Renilla luciferase signal
CCOC(=O)COc1cc(-n2ncc(C(F)(F)F)c(C)c2=O)c(F)cc1Cl	1.03
CCCCCOC(=O)COc1cc(N2C(=O)C3=C(CCCC3)C2=O)c(F)cc1Cl	0.974
CC(C)(O)c1ccc(CNC(=O)c2cccnc2Oc2ccc3nonc3c2)cc1	0.999
CSC(=O)c1cccc2nnsc12	1.07
COC(=O)c1ccc(C(=O)OC)cc1 [Dimethyl terephthalate]	1.01
CCOc1cccc(-n2cc(C(=O)N3CCN(c4cc(C(=O)[O-])c5ccccc5c4)CC3)nc2-c2ccc(C)cc2)c1.[Na+]	0.903
COc1c(Cl)ccc(Cl)c1C(=O)O	1.04
C[C@]12CC[C@@H]3c4ccc(O)cc4C[C@@H](CCCCCCCCCS(=O)CCCC(F)(F)C(F)(F)F)[C@H]3[C@@H]1CC[C@@H]2O (stereo partly drawn)	1.09
OCC(CO)(CO)CO	1.08
[Cl-].[K+]	1.02
CC(C)CC(C=O)NC(=O)C(CC(C)C)NC(=O)C(CC(C)C)NC(=O)OCc1ccccc1 (stereo not drawn)	0.00775
COc1cccc(-c2ccc(/C=C\CN3CCCCCC3)cc2Cl)c1.Cl	1.14
NCc1cccc(C2CCN(C(=O)c3ccc(C#Cc4ccccc4F)o3)CC2)c1	1.04
O=C(O)c1cccc(C[C@@H]2COc3ccc(OCc4nc5cc(F)ccc5s4)cc3[C@@H]2O)c1	1.17
C=CCOC(Cn1ccnc1)c1ccc(Cl)cc1Cl (stereo not drawn)	0.777
CCOc1ccc2[nH]cc(C(=O)NCc3ccccc3)c(=O)c2n1	1.22
CCN(CC)C(=O)c1cc(S(=O)(=O)Cc2ccccc2)c(N2CCC(c3ccccc3)CC2)cc1N(CC)CCN(C)C.O=C(O)C(F)(F)F [HMR1171 trifluoroacetate (1:1)]	0.648
CCCCCCCCOC(=O)c1cc(O)c(O)c(O)c1 [Octyl gallate]	0.814
